Target: T1, human tissue factor (TF) on cells (human, UniProt P13726 33-295)
T1 construct: also called human TF; the antigen
Test: cell ELISA on fixed J82 cells expressing TF
endpoint: binding result

{"binder": "H chain humanized version i / L chain humanized version b2 antibody (antibody, V domains shown, also called i-b2; humanized anti-human TF antibody version i-b2) VH: QVQLLESGAVLARPGTSVKISCKASGFNIKDYYMHWVKQRPGQGLEWIGGNDPANGHSMYDPKFQGRVTITADTSTSTVFMELSSLRSEDTAVYYCARDSGYAMDYWGQGTLVTVSS VL: DIQMTQSPSSLSASVGDRVTITCKASQDIKSFLSWYQQKPEKAPKSLIYYATSLADGVPSRFSGSGSGTDYTLTISSLQPEDFATYYCLQHGESPYTFGGGTKVEIK", "observed_measurement": "binds"}
{"binder": "chimeric H chain / humanized L chain version b1 antibody (antibody, V domains shown, Expressed from N5KG4P (human IgG4-type); also called ch-b1) VH: EVQLQQSGTNLVRPGALVKLSCKGSGFNIKDYYMHWVKQRPEQGLEWIGGNDPANGHSMYDPKFQGKASITADTSSNTAYLQLSSLTSEDTAVYFCARDSGYAMDYWGQGTSVTVSS VL: DIQMTQSPSSLSASVGDRVTITCKASQDIKSFLSWFQQKPGKSPKTLIYYATSLADGVPSRFSGSGSGTDYTLTISSLQPEDFATYYCLQHGESPYTFGGGTKVEIK", "observed_measurement": "binds"}
{"binder": "humanized H chain version g / humanized L chain version b antibody (antibody, V domains shown, Expressed from N5KG4P (human IgG4-type); also called g-b) VH: QVQLLESGAVLARPGTSVKISCKASGFNIKDYYMHWVKQRPGQGLEWIGGNDPANGHSMYDPKFQGKATLTADESSSTAYMQLSSLRSEDSAVYSCARDSGYAMDYWGQGTLVTVSS VL: DIQMTQSPSSLSASVGDRVTITCKASQDIKSFLSWYQQKPGKAPKLLIYYATSLADGVPSRFSGSGSGTDYTLTISSLQPEDFATYYCLQHGESPYTFGGGTKVEIK", "observed_measurement": "binds"}

Values were extracted from patent US8062638.
